Cited source: PubChem BioAssay (NCI)

Assign growth to each entry below.
test system: EKVX NSCLC; test: NCI-60 one-dose screen, 48 h (100 = growth as untreated, 0 = no growth, -100 = all killed); conditions: 10 µM unless noted
This is part of a sample that, as a whole, favours compounds with a hit. Of some 83,000 tested, about 20% had one in any assay.
Give bare numbers, in %.

CC(C)c1cccc(C#N)c1; 94

Below is a list of compounds. For each, state its recorded growth.
1. CCCCCCCCCCCCCCCCCC1=NCCN1CCO
2. CC[C@]1(O)C[C@H]2CN(CCc3c([nH]c4ccccc34)C(C(=O)OC)(c3cc4c(cc3OC)N(C)[C@H]3[C@@](O)(C(=O)OC)[C@H](OC(C)=O)[C@]5(CC)[C@@H]6C[C@@H]6CN6CC[C@]43[C@@H]65)C2)C1 (some centres undefined)
3. CC(=O)O[C@@H]1CC2C(C)(C)CCCC2(C)C2=C1C(=O)C(C(C)C)=CC2=O (some centres undefined)
4. CCCCCCCCCCCC1=NC(C)(C)CN1C(C)C
5. CCN1C(=O)N(CC)C2C1NN=c1s/c(=C\c3ccc(Br)cc3)c(=O)n12 (centres undefined)
6. Oc1ccc(-c2nnc3c4[nH]ccc4ncn23)cc1

Output:
78.2
35.2
10.8
57.5
38.2
93.6

Below is a list of compounds. For each, state its recorded growth.
1. CC1CCCN(CCCCOc2ccc(-c3ccc(C#N)cc3)cc2)C1 (centres undefined)
2. Clc1cc(Cl)cc(-c2cnc3nonc3n2)c1

Output:
1. 88.9
2. 102

Below is a list of compounds. For each, state its recorded growth.
1. C#C[C@]1(O)CC[C@H]2[C@@H]3CC=C4c5sc(-c6cccc(Br)c6)nc5CC[C@]4(C)[C@H]3CC[C@@]21C
2. O=[N+]([O-])c1ccc(SSc2ccc([N+](=O)[O-])cc2Cl)c(Cl)c1
3. COc1ccc(Cl)cc1Nc1nc(C(F)(F)F)ccc1C(=O)NN
4. COc1ccc(NC(=O)Cn2c(=O)sc3c(-c4ccc(Cl)cc4)cc(-c4ccc(Cl)cc4)nc32)cc1
5. COc1cc(C2CC(c3ccc(Cl)cc3)=NN2C(C)=O)ccc1Oc1ccnc2cc(Cl)ccc12 (centres undefined)

Output:
1. 80.1
2. 87.9
3. 27.9
4. 95.4
5. 51.9
